# studySystem: Peroxisome proliferator-activated receptor delta (Homo sapiens)
# Sequence (Q03181 whole entry, the tested form may be a part): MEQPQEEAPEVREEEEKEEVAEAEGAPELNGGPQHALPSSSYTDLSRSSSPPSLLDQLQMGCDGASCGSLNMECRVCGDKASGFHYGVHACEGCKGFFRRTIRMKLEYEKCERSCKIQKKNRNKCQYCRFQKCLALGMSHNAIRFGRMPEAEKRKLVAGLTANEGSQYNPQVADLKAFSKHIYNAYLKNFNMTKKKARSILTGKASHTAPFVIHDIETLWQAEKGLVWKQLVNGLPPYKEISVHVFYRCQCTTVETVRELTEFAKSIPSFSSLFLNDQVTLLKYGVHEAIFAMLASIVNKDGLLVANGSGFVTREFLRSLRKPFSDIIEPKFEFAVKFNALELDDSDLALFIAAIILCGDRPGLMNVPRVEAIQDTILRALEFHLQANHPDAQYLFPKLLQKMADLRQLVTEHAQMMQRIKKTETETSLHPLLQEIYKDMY
# test: Agonist activity at yeast Gal4-fused human PPARdelta transfected in human HepG2 cells assessed as transactivation by measuring beta-galactosidase activity incubated for 20 hrs by luminometry
parameterMeasured: EC50 (µM)

[[record]]
compound = "CC(C)(C)OC(=O)N[C@@H](CSCc1ccc(C(=O)c2ccccc2)cc1)C(=O)O"
parametermeasured = "EC50"
experimentalvalue = 28

[[record]]
compound = "CC(C)(C)OC(=O)NC(CSCc1ccc(C(=O)c2ccccc2)cc1)C(=O)O (configuration not stated)"
parametermeasured = "EC50"
experimentalvalue = 37.1


====

# studySystem: Peroxisome proliferator-activated receptor alpha (Homo sapiens) (UniProt Q07869)
# Sequence (Q07869 whole entry, the tested form may be a part): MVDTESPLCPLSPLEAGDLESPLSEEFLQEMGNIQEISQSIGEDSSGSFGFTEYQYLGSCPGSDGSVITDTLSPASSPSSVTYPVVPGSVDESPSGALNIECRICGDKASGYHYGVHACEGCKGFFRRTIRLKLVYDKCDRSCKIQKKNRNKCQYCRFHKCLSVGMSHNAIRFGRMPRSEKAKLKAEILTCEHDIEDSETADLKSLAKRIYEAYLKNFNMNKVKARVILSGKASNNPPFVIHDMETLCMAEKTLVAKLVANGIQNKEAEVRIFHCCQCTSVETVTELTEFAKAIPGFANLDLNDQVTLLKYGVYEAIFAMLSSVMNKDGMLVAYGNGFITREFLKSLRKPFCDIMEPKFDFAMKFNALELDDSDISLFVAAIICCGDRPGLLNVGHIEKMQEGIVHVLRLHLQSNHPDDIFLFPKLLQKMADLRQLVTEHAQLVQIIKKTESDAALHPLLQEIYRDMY
# test: Agonist activity at yeast Gal4-fused human PPARalpha LBD transfected in human HepG2 cells assessed as transactivation by measuring beta-galactosidase activity incubated for 20 hrs by luminometry relative to control
# Format: cell-based
# testContext: filed as agonist
Below, each of the compounds is paired with its reported Emax value.
parameterMeasured: Emax

[[record]]
compound = "O=C(NC(CSCc1ccc(Cc2ccc(Cl)cc2)cc1)C(=O)O)OCc1ccccc1 (centres undefined)"
experimentalvalue = "165%"

[[record]]
compound = "CC(C)(C)OC(=O)NC(CSCc1ccc(C(=O)c2ccc(C(F)(F)F)cc2)cc1)C(=O)O (centres undefined)"
experimentalvalue = "77%"

[[record]]
compound = "CC(C)(C)OC(=O)NC(CSCc1ccc(-c2ccccc2)cc1)C(=O)O (centres undefined)"
experimentalvalue = "108%"

[[record]]
compound = "CC(C)(C)OC(=O)NC(COCc1ccc(-c2ccccc2)cc1)C(=O)O (centres undefined)"
experimentalvalue = "100%"

